Source of measurements: patent US7534897B2

# pIC50 annotations
Target protein (sequence): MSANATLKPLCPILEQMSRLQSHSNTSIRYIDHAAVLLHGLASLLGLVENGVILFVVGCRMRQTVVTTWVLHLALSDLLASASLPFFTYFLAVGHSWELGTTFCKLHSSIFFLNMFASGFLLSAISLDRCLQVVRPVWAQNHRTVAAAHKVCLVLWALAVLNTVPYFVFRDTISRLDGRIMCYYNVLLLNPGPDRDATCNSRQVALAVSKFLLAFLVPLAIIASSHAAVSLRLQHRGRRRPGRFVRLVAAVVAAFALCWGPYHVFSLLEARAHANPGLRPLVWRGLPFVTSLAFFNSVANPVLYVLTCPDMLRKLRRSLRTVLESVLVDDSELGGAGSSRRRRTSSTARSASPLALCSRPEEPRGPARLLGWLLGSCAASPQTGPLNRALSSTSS
Keep in mind that pIC50 stands for -log10 of concentration in molar terms.

Consider the worked cases shown below.
O=C(O)Cn1cc(CCN(CCc2ccccc2)S(=O)(=O)c2ccc(F)cc2)c2ccccc21	7.43
COc1ccc2c(c1)c(CCN(Cc1ccccc1)S(=O)(=O)c1ccc(F)cc1)cn2CC(=O)O	7.24
Cc1c(CCN(C)S(=O)(=O)c2ccc(F)cc2)c2ccccc2n1CC(=O)O	7.47
O=C(O)Cn1cc(C2CCC(N(Cc3ccccc3)S(=O)(=O)c3ccc(F)cc3)C2)c2ccccc21 (stereo not shown)	7.28

`O=C(O)Cn1cc(C2=CCCN(S(=O)(=O)c3ccc(F)cc3)C2)c2ccccc21` yielded pIC50 of 7.68

CC1CCc2c(c3cc(N(C)S(=O)(=O)c4ccc(F)cc4)ccc3n2CC(=O)O)C1 (stereo not shown) yielded pIC50 of 7.64

`Cc1c(C(C)C)c2cc(NS(=O)(=O)c3ccc(F)cc3)ccc2n1CC(=O)O` yielded pIC50 of 7.33

O=C(O)Cn1c2c(c3ccccc31)CC(NS(=O)(=O)c1cccs1)CC2 (single isomer, unassigned; (+)) [(+)-Ib-20] yielded pIC50 of 8.10

`CN(CCc1cn(CC(=O)O)c2ccc(Cl)cc12)S(=O)(=O)c1ccc(F)cc1` yielded pIC50 of 7.64

`O=C(O)Cn1c2c(c3cc(N(Cc4ccccc4)S(=O)(=O)c4ccc(F)cc4)ccc31)CCCC2` yielded pIC50 of 7.48

`Cc1ccccc1CN(CCc1cn(CC(=O)O)c2ccccc12)S(=O)(=O)c1ccc(F)cc1` yielded pIC50 of 7.35

`CS(=O)(=O)NC(=O)Cn1cc(CCN(Cc2ccccc2)S(=O)(=O)c2ccc(F)cc2)c2ccccc21` yielded pIC50 of 7.62

`O=C(O)Cn1cc(CCN(Cc2ccccc2)S(=O)(=O)c2ccc(F)cc2)c2ccccc21` yielded pIC50 of 7.70

----------
For reference, log10 IC50 measured on CRTH2 (Homo sapiens, UniProt Q9Y5Y4):
// stored as log10 of IC50 expressed in nM

Consider the worked cases shown below.
O=C(O)Cn1c2ccccc2c2cc(N(Cc3ccccc3)S(=O)(=O)c3ccc(F)cc3)ccc21	1.41
COc1ccc(CN(CCc2cn(CC(=O)O)c3ccccc23)S(=O)(=O)c2ccc(F)cc2)cc1	1.69
O=C(O)Cn1cc(C2CCCN(S(=O)(=O)c3ccc(F)cc3)C2)c2ccccc21 (centres unmarked)	0.65
CC1CCc2c(c3cc(N(Cc4ccccc4)S(=O)(=O)c4ccc(F)cc4)ccc3n2CC(=O)O)C1 (centres unmarked)	1.53
CN(c1ccc2c(c1)c1c(n2CC(=O)O)CCSC1)S(=O)(=O)c1ccc(F)cc1	0.99
CN(c1ccc2c(c1)c1c(n2CC(=O)O)CCCC1=O)S(=O)(=O)c1ccc(F)cc1	0.89
O=C(O)Cn1cc(CCN(Cc2ccccc2)S(=O)(=O)c2ccc(F)cc2)c2cc(F)ccc21	1.36

Known value: CRTH2 (Homo sapiens, UniProt Q9Y5Y4) log10 IC50 of the molecule O=C(O)Cn1cc(C2CCC(NS(=O)(=O)c3ccc(F)cc3)C2)c2ccccc21 (centres unmarked) equals 1.41
